Tested on: HL-60(TB) leukemia
Test: NCI tumour cell line growth inhibition, 48 h
Entries and their TGI values follow.
Provide the reading as a plain figure in µM.

molecule	unit_label	TGI
CC1CC[C@@]23CCC4(C)[C@@](C=CC5[C@@]6(C)CCC(=O)C(C)(C)C6CC[C@]54C)(OC2=O)[C@@H]3[C@H]1C (some centres not stated)	µM	13.3

(Q) Form field: reported TGI of CN[C@@H](C)C(=O)N[C@H]1CCS[C@H]2CC(C)(C)[C@@H](C(=O)N[C@H]3c4ccccc4C[C@H]3OCC#CC#CCO[C@@H]3Cc4ccccc4[C@@H]3NC(=O)[C@H]3N4C(=O)[C@@H](NC(=O)[C@H](C)NC)CCS[C@H]4CC3(C)C)N2C1=O
(A) 2.33

(Q) Which TGI is reported for this molecule? O=C1/C=C/[C@@H](O)[C@@H]2C[C@@H](O)C[C@H]2/C=C/CCC[C@H](CCOCc2ccccc2)O1
(A) 3.31

(Q) Entry CCCC[C@H](NC(=O)[C@H]1CCCCN1C)C(=O)N(C)[C@H](C[C@@H](OC(C)=O)c1nc(C(=O)N[C@@H](Cc2ccccc2)C[C@H](C)C(=O)OCC)cs1)C(C)C has what TGI?
(A) 0.00341
